Quick list: Papp per entry.
# test: in vitro
# details: human, Caco-2, Caco-2 (cm/sec)
Where a SMILES comes first, the peptide text is derived from it. Bridges are numbered along the chain shown (N, C = ends). [ ]: non-standard residue; d: D form. The star is where a group is joined. NMePhe(3-Cl) = CN[C@@H](Cc1cccc(Cl)c1)C(=O)O; NMeF = CN[C@@H](Cc1ccccc1)C(=O)O; NMeI = CC[C@H](C)[C@H](NC)C(=O)O; NMeL = CN[C@@H](CC(C)C)C(=O)O; Propyl(2R-OH) = C[C@@H](O)C*; NMeV = CN[C@H](C(=O)O)C(C)C; Piperidide = C1CCN(*)CC1; NBuGly = CCCCNCC(=O)O; Sar = CNCC(=O)O; tBu = CC(C)(C)*

{"columns": ["compound", "Papp"],
 "data": [
  ["CCCCN1CC(=O)N(C)[C@@H](CC(C)C)C(=O)N[C@@H](COC(C)(C)C)C(=O)N(C)[C@@H](Cc2ccccc2)C(=O)N(C)[C@@H](CC(C)C)C(=O)N[C@H](C(=O)N2CCCCC2)CC(=O)N[C@H](C(C)C)C(=O)N(C)[C@@H](Cc2ccccc2)C(=O)N[C@@H](COC[C@@H](C)O)C(=O)N(C)[C@@H](CC(C)C)C(=O)N[C@@H]([C@@H](C)O)C1=O [AP71] ([dV][NMeF]S(Propyl(2R-OH))[NMeL]T[NBuGly][NMeL]S(tBu)[NMeF][NMeL]D-Piperidide; lactam N-11)", "0.71 ×10⁻⁶ cm/s"],
  ["CC[C@H](C)[C@H]1C(=O)N[C@@H]([C@@H](C)O)C(=O)N(C)CC(=O)N(C)[C@@H](CC(C)C)C(=O)N[C@H](C(=O)N2CCCCC2)CC(=O)N(C)[C@@H](C(C)C)C(=O)N[C@@H](COC[C@@H](C)O)C(=O)N(C)[C@@H](CC(C)C)C(=O)N(C)[C@@H](Cc2cccc(Cl)c2)C(=O)N[C@@H](CC(C)C)C(=O)N(C)[C@@H](Cc2ccccc2)C(=O)N1C [AP79] ([NMeV]S(Propyl(2R-OH))[NMeL][NMePhe(3-Cl)]L[NMeF][NMeI]T[Sar][NMeL]D-Piperidide; lactam N-11)", "1.1 ×10⁻⁶ cm/s"]
]}

----------
# test: Membrane permeability test of cyclic peptides (Caco-2, modified/improved method of WO 2018/124162)
# details: human, Caco-2, Caco-2 (cm/sec), membrane permeability of cyclic peptides, Caco-2
Where a SMILES comes first, the peptide text is derived from it. Bridges are numbered along the chain shown (N, C = ends). [ ]: non-standard residue; d: D form. The star is where a group is joined. ξ: configuration not given here. NMeF = CN[C@@H](Cc1ccccc1)C(=O)O; NMeL = CN[C@@H](CC(C)C)C(=O)O; Butyl(3S-OH) = C[C@H](O)CC*; NMeV = CN[C@H](C(=O)O)C(C)C; Piperidide = C1CCN(*)CC1; ξS = NC(CO)C(=O)O; Sar = CNCC(=O)O

{"columns": ["compound", "uom", "Papp"],
 "data": [
  ["CC(C)C[C@@H]1NC(=O)[C@H](C(C)C)N(C)C(=O)C[C@@H](C(=O)N2CCCCC2)NC(=O)[C@H](CC(C)C)N(C)C(=O)CN(C)C(=O)[C@H]([C@@H](C)O)NC(=O)[C@H](C(C)C)N(C)C(=O)[C@H](Cc2ccccc2)N(C)C(=O)C(COCC[C@H](C)O)NC(=O)[C@H](Cc2ccccc2)N(C)C(=O)[C@H](CC(C)C)N(C)C1=O (stereo partly drawn) [AP104] ([NMeV]L[NMeL][NMeF][ξS](Butyl(3S-OH))[NMeF][NMeV]T[Sar][NMeL]D-Piperidide; lactam N-11)", "×10⁻⁶ cm/s", 2.9]
]}

----------
# details: Caco-2, Caco-2 (cm/sec) Papp
Where a SMILES comes first, the peptide text is derived from it. Bridges are numbered along the chain shown (N, C = ends). [ ]: non-standard residue; d: D form. The star is where a group is joined. NMeF = CN[C@@H](Cc1ccccc1)C(=O)O; NMeL = CN[C@@H](CC(C)C)C(=O)O; Piperidide = C1CCN(*)CC1; Sar = CNCC(=O)O; tBu = CC(C)(C)*

{"columns": ["compound", "uom", "Papp"],
 "data": [
  ["CC(C)C[C@@H]1NC(=O)CN(C)C(=O)[C@H](Cc2ccccc2)N(C)C(=O)[C@@H](C)NC(=O)C[C@@H](C(=O)N2CCCCC2)NC(=O)[C@H](Cc2ccccc2)N(C)C(=O)[C@H](Cc2ccccc2)N(C)C(=O)[C@H](COC(C)(C)C)NC(=O)[C@H](CC(C)C)N(C)C(=O)[C@H](Cc2ccccc2)NC(=O)[C@H]([C@@H](C)O)NC1=O [pd248] ([dA][NMeF][Sar]LTF[NMeL]S(tBu)[NMeF][NMeF]D-Piperidide; lactam N-11)", "×10⁻⁶ cm/s", 0.014]
]}

----------
# test: in vitro
# details: human, Caco-2, Caco-2 (membrane permeability)
*1 amine or outer side, *2 acyl side, *3 side chain or, on linkers, in order; H or OH if unused. Where a SMILES comes first, the peptide text is derived from it. Bridges are numbered along the chain shown (N, C = ends). [ ]: non-standard residue; d: D form. The star is where a group is joined. X12 = O=C([C@H](CCCC(O)C(F)(F)F)N[*:1])[*:2]; NMeF = CN[C@@H](Cc1ccccc1)C(=O)O; NMeI = CC[C@H](C)[C@H](NC)C(=O)O; CH2CH(OH)CF3 = OC(C*)C(F)(F)F; NMeL = CN[C@@H](CC(C)C)C(=O)O; NMeV = CN[C@H](C(=O)O)C(C)C; NMeAbu = CC[C@H](NC)C(=O)O; NMeA = CN[C@@H](C)C(=O)O; Piperidide = C1CCN(*)CC1; CH2CONHMe = CNC(=O)C*; NBuGly = CCCCNCC(=O)O; NPrGly = CCCNCC(=O)O; Sar = CNCC(=O)O; tBu = CC(C)(C)*
Define the label as fulfilled when Papp is strictly less than 0.8 ×10⁻⁶ cm/s and as not fulfilled in all remaining cases.

{"columns": ["compound", "assigned_class"],
 "data": [
  ["CC[C@H](C)[C@H]1C(=O)N[C@@H]([C@@H](C)O)C(=O)N(C)CC(=O)N(C)[C@@H](CC(C)C)C(=O)N[C@H](C(=O)N2CCCCC2)CC(=O)N(C)[C@@H](C(C)C)C(=O)N[C@@H](CC(C)C)C(=O)N(C)[C@@H](CC(C)C)C(=O)N(C)[C@@H](Cc2ccccc2)C(=O)N[C@@H](COCC(O)C(F)(F)F)C(=O)N(C)[C@@H](Cc2ccccc2)C(=O)N1C (stereo partly drawn) [Compound C05] ([NMeV]L[NMeL][NMeF]S(CH2CH(OH)CF3)[NMeF][NMeI]T[Sar][NMeL]D-Piperidide; lactam N-11)", "fulfilled"],
  ["CCCCN1CC(=O)N(C)[C@@H](Cc2ccccc2)C(=O)N[C@@H]([C@@H](C)CC)C(=O)N(C)[C@@H](CC(C)C)C(=O)N[C@@H]([C@@H](C)O)C(=O)N(CCC)CC(=O)N(C)[C@@H](Cc2ccccc2)C(=O)N(C)[C@@H](CC(C)C)C(=O)N[C@@H](COCC(=O)NC)C(=O)N(C)[C@@H](CC(C)C)C(=O)N[C@H](C(=O)N2CCCCC2)CC1=O [Compound I06] ([NBuGly][NMeF]I[NMeL]T[NPrGly][NMeF][NMeL]S(CH2CONHMe)[NMeL]D-Piperidide; lactam N-11)", "fulfilled"],
  ["CC[C@H](C)[C@H]1C(=O)N[C@@H](C(C)C)C(=O)N(C)CC(=O)N(C)[C@@H](CC(C)C)C(=O)N[C@H](C(=O)N2CCCCC2)CC(=O)N(C)[C@@H](C)C(=O)N[C@@H](COCC(O)C(F)(F)F)C(=O)N(C)[C@@H](CC(C)C)C(=O)N(C)[C@@H](Cc2ccccc2)C(=O)N[C@@H](CC(C)C)C(=O)N(C)[C@@H](Cc2ccccc2)C(=O)N1C (stereo partly drawn) [Compound C15] ([NMeA]S(CH2CH(OH)CF3)[NMeL][NMeF]L[NMeF][NMeI]V[Sar][NMeL]D-Piperidide; lactam N-11)", "not fulfilled"],
  ["CC[C@H]1C(=O)N(C)[C@@H](Cc2ccccc2)C(=O)N[C@@H](CC(C)C)C(=O)N(C)[C@@H](Cc2ccccc2)C(=O)N(C)[C@@H](C(C)C)C(=O)N[C@@H](CCCC(O)C(F)(F)F)C(=O)N(C)CC(=O)N(C)[C@@H](CC(C)C)C(=O)N[C@H](C(=O)N2CCCCC2)CC(=O)N(C)[C@@H](C)C(=O)N[C@@H](CC(C)C)C(=O)N1C (stereo partly drawn) [Compound D14] ([NMeA]L[NMeAbu][NMeF]L[NMeF][NMeV][X12][Sar][NMeL]D-Piperidide; lactam N-11)", "not fulfilled"],
  ["CC[C@H](C)[C@@H]1NC(=O)[C@H](CC(C)C)N(C)C(=O)[C@H](COCC(O)C(F)(F)F)NC(=O)[C@H](Cc2ccccc2)N(C)C(=O)CN(C)C(=O)C[C@@H](C(=O)N2CCCCC2)NC(=O)[C@H](CC(C)C)N(C)C(=O)[C@H](COC(C)(C)C)NC(=O)[C@H](CC(C)C)N(C)C(=O)[C@H](Cc2ccccc2)N(C)C(=O)CN(C)C1=O (stereo partly drawn) [Compound C17] ([Sar][NMeF]S(CH2CH(OH)CF3)[NMeL]I[Sar][NMeF][NMeL]S(tBu)[NMeL]D-Piperidide; lactam N-11)", "not fulfilled"]
]}
